Source listed as patent US12441730B2.

biological target: Full-length (FL)-PRMT5-MEP50 enzyme complex (Homo sapiens, UniProt O14744); construct: Full-length (FL)-PRMT5-MEP50 enzyme complex (recombinant proteins from baculovirus-transfected Sf21 cells: FL-PRMT5; MW=73837 kDa and FL-MEP50; MW=38614); made in house; host or cells: baculovirus-transfected Sf21 cells; assay: PRMT5-MEP50 Enzyme Methylation Assay (Version A); type: biochemical; settings: single EC50 = 4 parameter single site sigmoidal fit; EC50 1 = first value of 7 parameter biphasic fit; read-out: Enzyme Methylation Assay Version A (EC50 or EC50 1)
Sequence (O14744 whole entry): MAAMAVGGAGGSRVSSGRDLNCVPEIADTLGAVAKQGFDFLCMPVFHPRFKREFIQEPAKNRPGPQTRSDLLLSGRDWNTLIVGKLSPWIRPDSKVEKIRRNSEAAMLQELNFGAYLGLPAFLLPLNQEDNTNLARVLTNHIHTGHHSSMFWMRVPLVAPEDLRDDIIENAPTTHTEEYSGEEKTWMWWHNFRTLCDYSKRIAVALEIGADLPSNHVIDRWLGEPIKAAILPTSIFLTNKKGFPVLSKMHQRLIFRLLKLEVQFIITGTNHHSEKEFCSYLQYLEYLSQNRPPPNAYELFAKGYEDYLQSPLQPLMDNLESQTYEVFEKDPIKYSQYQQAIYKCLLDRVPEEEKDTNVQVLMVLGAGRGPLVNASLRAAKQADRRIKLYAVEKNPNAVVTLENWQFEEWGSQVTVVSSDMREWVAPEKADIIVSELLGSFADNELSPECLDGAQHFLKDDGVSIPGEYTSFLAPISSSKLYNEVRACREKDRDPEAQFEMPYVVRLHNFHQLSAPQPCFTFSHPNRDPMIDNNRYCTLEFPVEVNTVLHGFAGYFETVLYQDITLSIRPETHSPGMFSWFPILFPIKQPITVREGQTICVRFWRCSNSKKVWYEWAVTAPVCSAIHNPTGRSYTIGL
Sequence (Q9BQA1 whole entry partner): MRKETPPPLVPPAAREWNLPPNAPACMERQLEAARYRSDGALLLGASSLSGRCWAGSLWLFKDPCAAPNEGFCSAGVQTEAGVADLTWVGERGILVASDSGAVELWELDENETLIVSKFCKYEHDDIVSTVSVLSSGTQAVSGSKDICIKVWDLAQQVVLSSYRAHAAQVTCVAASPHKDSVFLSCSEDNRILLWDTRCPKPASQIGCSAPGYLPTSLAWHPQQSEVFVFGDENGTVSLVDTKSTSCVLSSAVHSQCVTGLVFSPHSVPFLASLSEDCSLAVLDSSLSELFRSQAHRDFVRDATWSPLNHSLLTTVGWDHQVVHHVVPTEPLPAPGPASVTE
observable: EC50 (nM)

Examples from the recorded data:
In [3]: df
Out[3]:
                                   compound  measurementunits  experimentalvalue
0  Cc1nc2nc(C(=O)N3CC[C@]4(Cc5ccccc5CN4)[C@H](O)C3)cn2cc1C1CC1                nM              0.583
1  CC(C)Oc1nc(Br)cn2cc(C(=O)N3CC[C@]4(Cc5ccccc5CN4)[C@H](O)C3)nc12                nM              0.495
2  Cc1cc(C(F)F)n2nc(C(=O)N3CC[C@]4(Cc5ccccc5CN4)[C@H](O)C3)nc2n1                nM                513

[I] O=C(c1cn2cc(C(F)(F)F)cc(CO)c2n1)N1CC[C@]2(Cc3ccccc3CN2)[C@H](O)C1
[II] Cc1cc(-c2onc(C)c2C(=O)N2CC[C@]3(Cc4ccccc4CN3)[C@H](O)C2)no1
[III] Cc1ccc2c(c1)CN[C@@]1(CCN(C(=O)c3cn4cc(C5CC5)cnc4n3)C[C@H]1O)C2
[IV] O=C(c1cn2c(n1)C(C1CCOC1)CC(C(F)(F)F)C2)N1CC[C@]2(Cc3ccccc3CN2)[C@H](O)C1 (single isomer, unassigned) [Example 163]
Asked: Descending sort on EC50 required. Lab note: record answer as labels in requested order.
Given back: III, IV, II, I
(III: 144 nM, IV: 96.6 nM, II: 4.87 nM, I: 0.428 nM)

[1] O=C1Nc2cc(C(=O)N3CC[C@]4(Cc5ccccc5CN4)[C@H](O)C3)ccc2OC1C1CC1 (single isomer, unassigned) [Example 106]
[2] COCCN1CC(C2CC2)Cn2cc(C(=O)N3CC[C@]4(Cc5ccccc5CN4)[C@H](O)C3)nc21 (single isomer, unassigned) [Example 143]
Asked: Of the two listed items, which has the higher EC50? First: 1 Second: 2 Bench note: the answer is the label of the chosen record.
Given back: 2
